# SYSTEM: Voltage-gated potassium channel subunit beta-2 (Rattus norvegicus)
# EXPERIMENTAL PROTOCOL: KvBeta enzyme negative modulators, primary screen, biochemical, NADPH fluorescence (AID 622);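 also: slope of raw intensity against log time taken from 70 to 1610 s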
# CONDITION SET: recombinant KvBeta, 4-cyanobenzaldehyde reduction, at 10 µM, active compounds read high
MEASURED ENDPOINT: fluorescence slope
Would you mind answering with just the numeric figure?

SMILES NOTATION | fluorescence slope
O=C(NC(=O)c1cccc(F)c1)OC[C@@H]1CCCN2CCCC[C@H]12 | -0.491
CC(C)CSc1nc(N2CCOCC2)c2c(c1C#N)CC(C)(C)SC2 | -0.424
CC(C)OC(=O)c1cccc(C(=O)O)n1 | -0.495
C=CCn1c(SCC(=O)Nc2ccccc2OC)nnc1-c1ccco1 | -0.494
Cc1cccc(-c2nnc3n2N=C(c2ccccc2)CS3)c1 | -0.415

Turning to the following molecule.
Request: Voltage-gated potassium channel subunit beta-2 (Rattus norvegicus) / fluorescence slope / "C=CCOc1nc2c(c(=O)n(Cc3ccc(Cl)cc3)c(=O)n2C)n1C" : value?
Result: -0.414
